target: Melanoma-associated antigen 4 (Homo sapiens); test: Inhibition of Eu-W1024 streptavidin-labeled MAGEA4 (unknown origin) expressed in Escherichia coli BL21-(DE3) incubated for 30 to 60 mins by LANCE TR-FRET assay
Sequence (P43358 whole entry): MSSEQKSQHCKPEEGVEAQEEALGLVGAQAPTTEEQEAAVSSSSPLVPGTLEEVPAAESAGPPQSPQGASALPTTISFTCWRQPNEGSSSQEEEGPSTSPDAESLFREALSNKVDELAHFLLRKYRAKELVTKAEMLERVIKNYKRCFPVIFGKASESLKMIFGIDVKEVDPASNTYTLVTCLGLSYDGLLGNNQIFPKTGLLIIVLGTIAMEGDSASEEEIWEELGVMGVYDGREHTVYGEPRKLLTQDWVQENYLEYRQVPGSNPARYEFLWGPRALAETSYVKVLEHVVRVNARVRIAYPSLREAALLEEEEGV
pIC50: −log10 of the molar value.
READOUT_KIND: pIC50

>>> df
           substance                                    target  readout_kind  result
0  Ac-YIRLYDYHNC-NH2  Melanoma-associated antigen 4 (Homo sapiens)         pIC50  > 5.00
